# systemTested: biotinylated His-Avi-TEAD (194-411) (UniProt P28347)
# measurementDescription: SSM screen, enrichment after two rounds of sorting
Category scheme (enrichment score): bin A = under -2, bin B = from -2 up to -0.4, bin C = -0.4 and over

> print(dat)
                                      binder    cat
 1  GSVDEYIERAKECCKKGDIQCCLRYFEESGDPNVMLICLFCP (designed binder) [P01V variant of SEQ ID NO: 1]  bin B
 2  GSPEEYIERAKECCKKGDIQCCLRYFEESGDPNVMLICLFCP (designed binder) [D02E variant of SEQ ID NO: 1]  bin C
 3  GSPDEYIERAVECCKKGDIQCCLRYFEESGDPNVMLICLFCP (designed binder) [K09V variant of SEQ ID NO: 1]  bin A
 4  GSPDEYIERAQECCKKGDIQCCLRYFEESGDPNVMLICLFCP (designed binder) [K09Q variant of SEQ ID NO: 1]  bin C
 5  GSPDEYIEVAKECCKKGDIQCCLRYFEESGDPNVMLICLFCP (designed binder) [R07V variant of SEQ ID NO: 1]  bin A
 6  GSPDEYIERAKECCKKGDILCCLRYFEESGDPNVMLICLFCP (designed binder) [Q18L variant of SEQ ID NO: 1]  bin A
 7  GSPDEYIERASECCKKGDIQCCLRYFEESGDPNVMLICLFCP (designed binder) [K09S variant of SEQ ID NO: 1]  bin B
 8  GSPDEYINRAKECCKKGDIQCCLRYFEESGDPNVMLICLFCP (designed binder) [E06N variant of SEQ ID NO: 1]  bin B
 9  GSRDEYIERAKECCKKGDIQCCLRYFEESGDPNVMLICLFCP (designed binder) [P01R variant of SEQ ID NO: 1]  bin A
10  GSPDEYIERAKECCKPGDIQCCLRYFEESGDPNVMLICLFCP (designed binder) [K14P variant of SEQ ID NO: 1]  bin A
11  GSPDEYIERAKGCCKKGDIQCCLRYFEESGDPNVMLICLFCP (designed binder) [E10G variant of SEQ ID NO: 1]  bin B
